# Measurement target: human type I enzyme (sPLA2) (Homo sapiens, UniProt P04054)
# Sequence (P04054 23-148): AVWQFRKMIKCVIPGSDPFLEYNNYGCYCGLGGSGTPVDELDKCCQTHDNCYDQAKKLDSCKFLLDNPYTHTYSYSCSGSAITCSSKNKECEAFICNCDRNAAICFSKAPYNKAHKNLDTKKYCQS
# Method summary: Inhibition test of human secretory phospholipase A2, chromogenic assay, type I enzyme
# Type: biochemical
Experimental endpoint: IC50

Data request, read-out IC50, for "CC(C)Cc1c(C(=O)C(N)=O)c2c(OCC(=O)NS(=O)(=O)c3ccccc3)cccc2n1Cc1ccc(F)cc1"
> 700 nM

====

# Measurement target: human type II enzyme (sPLA2) (Homo sapiens)
# Sequence (P14555 21-144): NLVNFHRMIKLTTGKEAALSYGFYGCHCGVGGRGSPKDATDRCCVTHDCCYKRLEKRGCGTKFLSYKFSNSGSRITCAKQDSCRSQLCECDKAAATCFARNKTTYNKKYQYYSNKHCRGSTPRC
# Method summary: Inhibition test of human secretory phospholipase A2, chromogenic assay, type II enzyme
# Format: biochemical
# Assay setup: human sPLA2 type II, chromogenic assay, 30 min; read-out: IC50 type II
pIC50: −log10 of the molar value.
Documented pIC50 across a set of compounds

Some compounds with recorded pIC50:
Cc1cc(OCC(=O)O)c2c(C(=O)C(N)=O)c(CC(C)C)n(Cc3ccccc3)c2c1 [Compound I-13]	< 6.00
CC(C)Cc1c(C(=O)C(N)=O)c2c(OCC(=O)O)cccc2n1Cc1ccc(F)cc1 [Compound I-11]	< 6.00
Cc1cc(OCC(=O)NS(=O)(=O)c2ccccc2)c2c(C(=O)C(N)=O)c(CC(C)C)n(Cc3ccccc3)c2c1 [Compound I-24]	< 6.00
Cc1cc(OCC(=O)NS(C)(=O)=O)c2c(C(=O)C(N)=O)c(CC(C)C)n(Cc3ccccc3)c2c1 [Compound I-25]	< 6.00
Cc1cn2c(CC3CCCCC3)c(CC(C)C)c(C(=O)C(N)=O)c2c(OCC(=O)O)n1 [Compound I-2]	< 6.00

Data request, read-out pIC50, for Cc1cc(OCC(=O)NS(=O)(=O)c2ccccc2)c2c(C(=O)C(N)=O)c(CC(C)C)c(Cc3ccccc3)n2n1 [Compound I-32]
< 6.00

Cc1cn2c(Cc3ccccc3)c(CC(C)C)c(C(=O)C(N)=O)c2c(OCC(=O)O)n1 [Compound I-1] ?
< 6.00

====

# Measurement target: human type X sPLA2 (Homo sapiens, UniProt O15496)
# Construct: made in house; unpurified culture supernatant
# Sequence (O15496 43-165): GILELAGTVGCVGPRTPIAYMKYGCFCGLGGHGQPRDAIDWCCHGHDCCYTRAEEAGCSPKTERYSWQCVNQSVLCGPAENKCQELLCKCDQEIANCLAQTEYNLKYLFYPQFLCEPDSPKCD
# Method summary: Human type X sPLA2-induced oleic acid release in human colon carcinoma HT-29 cells
# Assay type: cell-based
# Assay setup: compound 10 μM, 100 nM human type X sPLA2, 30 min, percentage of the increase by type X sPLA2 (no treatment group = 100)
Documented Oleic acid release across a set of compounds
# unit: % | format: bare number

Some compounds with recorded Oleic acid release:
CC(C)Cc1c(C(=O)C(N)=O)c2c(OCC(=O)O)cccc2n1Cc1ccccc1 [Compound I-10]	−0.2
CC(C)Cc1c(C(=O)C(N)=O)c2c(OCC(=O)NS(=O)(=O)c3ccccc3)cccc2n1Cc1ccccc1 [Compound I-21]	11.8
Cc1cn2c(CCc3ccccc3)c(CC(C)C)c(C(=O)C(N)=O)c2c(OCC(=O)O)n1 [Compound I-4]	13.8

--- query ---
Data request, read-out Oleic acid release, for CC(C)Cc1c(C(=O)C(N)=O)c2c(OCC(=O)NS(C)(=O)=O)cccc2n1Cc1ccccc1 [Compound I-23]
−2.0

====

Documented melting point across a set of compounds

CCCCS(=O)(=O)NC(=O)COc1cccc2c1c(C(=O)C(N)=O)c(CC(C)C)n2Cc1ccccc1	219.5 to 221 °C
Cc1cn2c(CCc3ccccc3)c(CC(C)C)c(C(=O)C(N)=O)c2c(OCC(=O)O)n1 [Compound I-4]	202 to 203 °C

Data request, read-out melting point, for Cc1cn2c(Cc3ccccc3)c(CC(C)C)c(CC(N)=O)c2c(OCC(=O)NS(C)(=O)=O)n1 [Compound I-35]
188 to 190 °C

CC(C)Cc1c(C(=O)C(N)=O)c2c(OCC(=O)NS(=O)(=O)c3ccccc3)cccc2n1Cc1ccc(F)cc1 [Compound I-22] ?
172 to 173 °C
